Quick reference for DC50 among some compounds
# Study System: HiBit-BRG1 fusion protein (Homo sapiens, UniProt P51532)
# Construct: expressed in transfected cells
# Sequence (P51532 whole entry, the tested form may be a part): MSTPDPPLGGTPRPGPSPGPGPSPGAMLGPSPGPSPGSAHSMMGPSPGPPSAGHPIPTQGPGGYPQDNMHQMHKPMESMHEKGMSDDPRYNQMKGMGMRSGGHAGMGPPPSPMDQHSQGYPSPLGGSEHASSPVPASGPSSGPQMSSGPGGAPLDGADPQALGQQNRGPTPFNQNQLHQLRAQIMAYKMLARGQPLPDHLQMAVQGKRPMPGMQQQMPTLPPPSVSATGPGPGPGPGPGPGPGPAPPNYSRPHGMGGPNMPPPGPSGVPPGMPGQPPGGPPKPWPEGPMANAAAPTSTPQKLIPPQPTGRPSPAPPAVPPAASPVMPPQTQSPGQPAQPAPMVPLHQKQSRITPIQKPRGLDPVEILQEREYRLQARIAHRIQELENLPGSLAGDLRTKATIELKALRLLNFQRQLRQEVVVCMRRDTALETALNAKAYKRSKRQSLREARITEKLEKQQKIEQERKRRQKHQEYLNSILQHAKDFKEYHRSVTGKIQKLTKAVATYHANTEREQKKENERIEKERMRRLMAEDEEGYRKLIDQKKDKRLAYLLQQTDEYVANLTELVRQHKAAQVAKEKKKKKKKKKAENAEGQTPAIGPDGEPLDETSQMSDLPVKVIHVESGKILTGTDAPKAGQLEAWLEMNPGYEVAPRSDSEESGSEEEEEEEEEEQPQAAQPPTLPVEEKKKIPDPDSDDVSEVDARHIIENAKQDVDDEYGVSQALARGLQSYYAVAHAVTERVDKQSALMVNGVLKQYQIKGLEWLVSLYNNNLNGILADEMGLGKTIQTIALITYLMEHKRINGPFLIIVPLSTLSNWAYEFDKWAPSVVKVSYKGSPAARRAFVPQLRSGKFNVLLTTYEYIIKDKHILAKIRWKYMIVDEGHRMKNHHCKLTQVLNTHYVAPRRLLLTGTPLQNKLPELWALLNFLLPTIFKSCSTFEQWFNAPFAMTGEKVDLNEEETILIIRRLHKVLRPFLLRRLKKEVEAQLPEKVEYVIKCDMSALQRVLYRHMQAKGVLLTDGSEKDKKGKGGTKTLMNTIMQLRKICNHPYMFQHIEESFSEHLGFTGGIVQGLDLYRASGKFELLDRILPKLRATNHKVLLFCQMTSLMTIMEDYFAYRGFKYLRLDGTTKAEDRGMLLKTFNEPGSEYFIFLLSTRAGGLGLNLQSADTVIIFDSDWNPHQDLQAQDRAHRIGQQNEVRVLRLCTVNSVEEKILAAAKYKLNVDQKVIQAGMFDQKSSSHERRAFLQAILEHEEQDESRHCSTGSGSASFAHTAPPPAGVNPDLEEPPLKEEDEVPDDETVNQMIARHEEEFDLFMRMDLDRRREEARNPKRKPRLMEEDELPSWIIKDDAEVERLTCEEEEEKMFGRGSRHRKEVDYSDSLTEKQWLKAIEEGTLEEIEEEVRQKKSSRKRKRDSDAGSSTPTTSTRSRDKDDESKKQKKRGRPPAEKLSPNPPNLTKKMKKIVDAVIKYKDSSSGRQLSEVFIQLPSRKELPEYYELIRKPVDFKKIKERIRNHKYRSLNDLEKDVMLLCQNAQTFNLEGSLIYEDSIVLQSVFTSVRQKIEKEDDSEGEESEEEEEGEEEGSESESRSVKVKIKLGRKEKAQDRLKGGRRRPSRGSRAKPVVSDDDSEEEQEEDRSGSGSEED
# Experimental Protocol: HiBiT-BRG1 cell-based degradation assay (Nano-Glo HiBiT Lytic Detection, 24 h)
# Particulars: HeLa cells expressing HiBit-BRG1 and LgBit, read-out: BRG1 HiBit Degradation IC50
# Method: Procedure: A stable HeLa cell line expressing HiBiT-BRM was generated. On day 0, 5000 cells were seeded in 40 μL of media into each well of 384-well cell culture plates. […] The plates were shaken for 10 minutes at room temperature and the bioluminescence read using an EnVision plate reader (PerkinElmer). […] The degradation % was calculated using the following formula: % degradation=100%−100%×(LumSample−LumLC)/(LumHC−LumLC). […]

Some solved cases for reference:
compound="CS(=O)(=O)n1ccc(C(=O)NCC(=O)Nc2nc(-c3cccc(-c4cccc(CNC(=O)CCOCCOCCNc5cccc6c5C(=O)N(C5CCC(=O)NC5=O)C6=O)c4)c3)cs2)c1 (stereo not drawn) [Compound 42]" recorded_value="0.1 to 1 µM"
compound="CS(=O)(=O)n1ccc(C(=O)N[C@@H](CCOCCCC(=O)NCCOCCOCCOCCNC(=O)COc2ccc3c(c2)C(=O)N(C2CCC(=O)NC2=O)C3=O)C(=O)Nc2nc(-c3ccccc3)cs2)c1 (stereo partly drawn) [Compound 273]" recorded_value="> 10 µM"

Query :: Looking for the measured DC50 of CS(=O)(=O)n1ccc(C(=O)N[C@@H](CCOCCCC(=O)N2CC(Oc3ccc4c(c3)C(=O)N(C3CCC(=O)NC3=O)C4=O)C2)C(=O)Nc2nc(-c3ccccc3)cs2)c1 (stereo partly drawn) [Compound 256] , can you help?
Result :: > 10 µM

Query :: Query: DC50; subject: CS(=O)(=O)n1ccc(C(=O)N[C@@H](COCc2ccc(C(=O)NCCOCCOCCOCCNC(=O)COc3ccc4c(c3)C(=O)N(C3CCC(=O)NC3=O)C4=O)cc2)C(=O)Nc2nc(-c3ccccc3)cs2)c1 (stereo partly drawn) [Compound 202]
Result :: > 10 µM

Query :: # DC50 lookup, item CN(CCOCCOCCNc1cccc2c1C(=O)N(C1CCC(=O)NC1=O)C2=O)C(=O)CN(C)c1cc(-c2cccc(-c3csc(NC(=O)CNC(=O)c4ccn(S(C)(=O)=O)c4)n3)c2)ccn1 (stereo not drawn) [Compound 84]
Result :: > 10 µM
